Measured EC50, listed per entry.
Molecular target: human TREM2 (Homo sapiens)
Construct: expressed in transfected cells; host or cells: HEK293T-hTREM2 cells (HEK cell line expressing human TREM2 and DAP12)
Sequence (Q9NZC2 19-230): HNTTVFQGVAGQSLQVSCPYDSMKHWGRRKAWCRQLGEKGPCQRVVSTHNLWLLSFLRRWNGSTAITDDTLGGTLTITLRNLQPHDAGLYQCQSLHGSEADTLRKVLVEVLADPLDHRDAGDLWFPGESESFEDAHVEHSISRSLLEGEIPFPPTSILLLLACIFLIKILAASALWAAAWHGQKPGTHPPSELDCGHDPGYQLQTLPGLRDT
Sequence (O43914 22-113 partner): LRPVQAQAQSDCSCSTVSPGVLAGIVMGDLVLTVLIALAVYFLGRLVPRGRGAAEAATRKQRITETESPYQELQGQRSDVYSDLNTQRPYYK
Assay: In vitro measurement of TREM2 activity using cellular phosphorylation of spleen tyrosine kinase (Syk), AlphaLisa, HEK293T-hTREM2 cells
Type: cell-based
Conditions: HEK293T cells expressing human TREM2 and DAP12, 45 min at room temperature, Table D-2

Record excerpt, results attached:
Compound	EC50
CN1Cc2c(cc(C3CCO[C@@H](c4cnn(C5CC5)c4)C3)nc2-c2ccc(C(F)(F)F)cc2F)C1=O (some centres unmarked)	50 to 500 nM
Cc1cc([C@H]2CN(c3cc4c(c(-c5ccc(Cl)cc5F)n3)[C@@H](C)N(C)C4=O)CCO2)ccn1	3000 to 100000 nM
C[C@@H]1CN(c2cc3c(c(-c4ccc(C(F)(F)F)cc4F)n2)CN(C)C3=O)C[C@H](c2cnn(C3CC3)c2)O1	≤ 50 nM
Cc1cc([C@H]2CN(c3cc4c(c(-c5ccc(Cl)cc5F)n3)CN(C)C4=O)CCO2)cnn1	500 to 3000 nM
CN1C(=O)c2cc([C@@H]3CCO[C@H](c4cnn(C5CC5)c4)C3)nc(-c3ccc(F)cc3F)c2C1=O	500 to 3000 nM
CN1C(=O)c2cc([C@H]3CCO[C@@H](c4cnn(C5CC5)c4)C3)nc(-c3ccc(F)cc3F)c2C1=O	500 to 3000 nM
CN1C(=O)c2cc(N3CCO[C@@H](c4cnn(C)c4)C3)nc(-c3ccc(Cl)cc3F)c2C1(C)C	3000 to 100000 nM
CN1Cc2c(cc([C@H]3CCO[C@@H](c4cnn(C5CC5)c4)C3)nc2-c2ccc(C(F)(F)F)cc2F)C1=O	50 to 500 nM
CN1Cc2c(cc([C@H]3CCO[C@@H](c4cnn(C5CC5)c4)C3)nc2C23CC(C(F)(F)F)(C2)C3)C1=O	50 to 500 nM
CN1Cc2c(cc(C3CCO[C@@H](c4cnn(C5CC5)c4)C3)nc2C2CC(C(F)(F)F)C2)C1=O (some centres unmarked)	50 to 500 nM

Form entry - test system: human TREM2 (Homo sapiens); read-out: EC50; compound: CN1Cc2c(cc([C@@H]3CCO[C@@H](c4cnn(C5CC5)c4)C3)nc2-c2ccc(C(F)(F)F)cc2F)C1=O
50 to 500 nM

Origin of values: patent US20260315483A1
